- System: 653999-131-R-J2-PDC complex spheroids, growth % test/control;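 note: spheroids exposed to agents for seven days; 100% = DMSO vehicle control viability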
- assay_info: Anticancer human tumor 653999-131-R-J2-PDC patient-derived lung adenocarcinoma cell line growth inhibition [AhR]
- condition_label: second compound 10 µM; first compound 0.0316 µM; stronger effect = lower value
The entries below come with measured viability, T/C values attached.
measured_endpoint: viability, T/C (%)

- compound: "NS(=O)(=O)OCC1CC(n2ccc3c(NC4CCc5ccccc54)ncnc32)CC1O (stereo not given) + Cc1ccccc1N=Nc1ccc(NC(=O)c2ccnn2C)c(C)c1"
  unit_string: "%"
  measured: 129
- compound: "NS(=O)(=O)OCC1CC(n2ccc3c(NC4CCc5ccccc54)ncnc32)CC1O (stereo not given) + CC(CO)NC(=O)c1cc(-c2ccc(Cl)cc2)nn(-c2cnn(C)c2)c1=O"
  unit_string: "%"
  measured: 97.9
- compound: "COc1cccc2c1C(=O)c1c(O)c3c(c(O)c1C2=O)CC(O)(C(=O)CO)CC3OC1CC(N)C(O)C(C)O1 (stereo not given) + Cc1ccccc1N=Nc1ccc(NC(=O)c2ccnn2C)c(C)c1"
  unit_string: "%"
  measured: 60.5
- compound: "O=C(c1cc(Cc2n[nH]c(=O)c3ccccc23)ccc1F)N1CCN(C(=O)C2CC2)CC1 + Cc1ccccc1N=Nc1ccc(NC(=O)c2ccnn2C)c(C)c1"
  unit_string: "%"
  measured: 89.8
- compound: "Nc1ccccc1NC(=O)c1ccc(CNC(=O)OCc2cccnc2)cc1 + Cc1ccccc1N=Nc1ccc(NC(=O)c2ccnn2C)c(C)c1"
  unit_string: "%"
  measured: 86.4
- compound: "COc1cccc2c1C(=O)c1c(O)c3c(c(O)c1C2=O)CC(O)(C(=O)CO)CC3OC1CC(N)C(O)C(C)O1 (stereo not given) + Cc1cncc(-c2nc(NCCc3c[nH]c4ccccc34)c3ncn(C(C)C)c3n2)c1"
  unit_string: "%"
  measured: 40
- compound: "COc1cc(Nc2ncc3c(n2)-c2ccc(Cl)cc2C(c2c(F)cccc2OC)=NC3)ccc1C(=O)O + Cc1ccccc1N=Nc1ccc(NC(=O)c2ccnn2C)c(C)c1"
  unit_string: "%"
  measured: 80.2
- compound: "CC[C@@]1(O)C(=O)OCc2c1cc1n(c2=O)Cc2cc3c(CN(C)C)c(O)ccc3nc2-1 + Cc1cncc(-c2nc(NCCc3c[nH]c4ccccc34)c3ncn(C(C)C)c3n2)c1"
  unit_string: "%"
  measured: 34.1
- compound: "Nc1ncn(C2CC(O)C(CO)O2)c(=O)n1 (stereo not given) + Cc1cncc(-c2nc(NCCc3c[nH]c4ccccc34)c3ncn(C(C)C)c3n2)c1"
  unit_string: "%"
  measured: 54
- compound: "CC[C@@]1(O)C(=O)OCc2c1cc1n(c2=O)Cc2cc3c(CN(C)C)c(O)ccc3nc2-1 + CC(CO)NC(=O)c1cc(-c2ccc(Cl)cc2)nn(-c2cnn(C)c2)c1=O"
  unit_string: "%"
  measured: 41.3
